System: A549
Test: Antiproliferative activity against human A549 cells by MTT assay
Type: functional, cell-based
pIC50: −log10 of the molar value.
parameter: pIC50

These recorded examples may help you get a feel for the data.
molecule: COc1cc2ncnc(NCc3cccc(NC(=O)Nc4ccccc4Cl)c3)c2cc1OC
pIC50: 4.82
//
molecule: Cc1ccccc1NC(=O)Nc1cccc(CNc2ncnc3ccccc23)c1
pIC50: 4.40
//
molecule: COC(=O)c1ccccc1NC(=O)Nc1cccc(CNc2ncnc3ccccc23)c1
pIC50: 4.53

I: COc1cc2ncnc(NCc3cccc(NC(=O)Nc4ccc(Cl)cc4)c3)c2cc1OC
II: O=C(Nc1ccccc1)Nc1cccc(CNc2ncnc3ccccc23)c1
III: COc1cc2ncnc(NCc3cccc(NC(=O)Nc4ccc(C(C)(C)C)cc4)c3)c2cc1OC
Rank the 3 molecules: largest pIC50 first, smallest last. Provide your answer as the labels ordered per the instruction. III, II, I

---

Tested on: A549
Assay: Antiproliferative activity against human A549 cells by MTT assay
Type: functional, cell-based
pIC50: −log10 of the molar value.
parameter: pIC50

Take a look at these entries with their results.
record-smiles: COc1cc2ncnc(NCc3cccc(NC(=O)Nc4ccccc4F)c3)c2cc1OC
reading: 4.62
//
record-smiles: Cc1cccc(NC(=O)Nc2cccc(CNc3ncnc4ccccc34)c2)c1
reading: 4.52
//
record-smiles: COC(=O)c1ccccc1NC(=O)Nc1cccc(CNc2ncnc3cc(OC)c(OC)cc23)c1
reading: 4.53
//
record-smiles: COc1ccc(NC(=O)Nc2cccc(CNc3ncnc4cc(OC)c(OC)cc34)c2)cc1
reading: 4.61
//
record-smiles: O=C(Nc1cccc(CNc2ncnc3ccccc23)c1)Nc1ccccc1Cl
reading: 4.75

a: COc1cc2ncnc(NCc3cccc(NC(=O)Nc4cccc(Cl)c4)c3)c2cc1OC
b: COc1cc2ncnc(NCc3cccc(NC(=O)Nc4ccc(C)cc4)c3)c2cc1OC
c: O=C(Nc1cccc(CNc2ncnc3ccccc23)c1)Nc1cccc(C(F)(F)F)c1
Put the entries in order of pIC50, starting with the largest number. Order the labels as requested and give them as your answer. b, a, c
(b: 4.89, a: 4.64, c: 4.35)

I: COc1cc2ncnc(NCc3cccc(NC(=O)Nc4ccccc4C)c3)c2cc1OC
II: COc1cc2ncnc(NCc3cccc(NC(=O)Nc4cccc(C(F)(F)F)c4)c3)c2cc1OC
Could you check which of I and II has a smaller value for pIC50? State the label of the item chosen. II
(II: 4.45, I: 4.67)

1: O=C(Nc1cccc(CNc2ncnc3ccccc23)c1)Nc1ccccc1F
2: COc1ccccc1NC(=O)Nc1cccc(CNc2ncnc3cc(OC)c(OC)cc23)c1
Could you check which of 1 and 2 has a smaller value for pIC50? Response format: the label of the selected entry. 1

1: CC(C)(C)c1ccc(NC(=O)Nc2cccc(CNc3ncnc4ccccc34)c2)cc1
2: COc1ccccc1NC(=O)Nc1cccc(CNc2ncnc3ccccc23)c1
Between the two listed entries 1 and 2 , which has its pIC50 at the higher number? Give the label under which the chosen entry appears. 1

P: COc1cc2ncnc(NCc3cccc(NC(=O)Nc4ccc(F)cc4)c3)c2cc1OC
Q: COc1ccc(NC(=O)Nc2cccc(CNc3ncnc4ccccc34)c2)cc1
Look at P and Q . Which one has the lower recorded pIC50 number? Refer to your chosen entry by its label in the reply. Q

---

Test system: A549
Experiment: Antiproliferative activity against human A549 cells by MTT assay
Format: functional, cell-based
parameter: IC50 (µM)

compound: Cc1ccc(NC(=O)Nc2cccc(CNc3ncnc4ccccc34)c2)cc1
measurement-target: A549
IC50 (µM): 24.9
--
compound: COc1cc2ncnc(NCc3cccc(NC(=O)Nc4ccccc4)c3)c2cc1OC
measurement-target: A549
IC50 (µM): 17.1
--
compound: COc1cc2ncnc(NCc3cccc(NC(=O)Nc4cccc(C)c4)c3)c2cc1OC
measurement-target: A549
IC50 (µM): 27.1
--
compound: O=C(Nc1ccc(F)cc1)Nc1cccc(CNc2ncnc3ccccc23)c1
measurement-target: A549
IC50 (µM): 21
--
compound: CNC(=O)c1cc(Oc2ccc(NC(=O)Nc3ccc(Cl)c(C(F)(F)F)c3)cc2)ccn1 [SORAFENIB]
measurement-target: A549
IC50 (µM): 13.6
